experiment: in vitro; assay type: cell-based, mouse; details: mouse, AML12 cells (mouse hepatocytes)
Peptide text beside a SMILES is read from it.
measure.name: viability at 24 h, 80 µM

For N=C(N)NCCC[C@H](NC(=O)[C@H](CS)NC(=O)[C@H](CCCNC(=N)N)NC(=O)[C@H](CCCNC(=N)N)NC(=O)[C@H](CCCNC(=N)N)NC(=O)[C@@H](N)CCCNC(=N)N)C(=O)N[C@@H](Cc1ccccc1)C(=O)N[C@@H](CS)C(=O)N[C@@H](CS)C(=O)O [AS-hepc3(48-56), Arg-Arg-Arg-Arg-Cys-Arg-Phe-Cys-Cys] (H-RRRRCRFCC-OH; N-terminus and C-terminus assumed) , what is its reported viability at 24 h, 80 µM?
> 95%

---

assay: in vitro; type: cell-based, mouse; conditions: mouse, AML12 cells (mouse hepatocytes)
Peptide text beside a SMILES is read from it.
measure.name: viability at 24 h, 40 µM

For N=C(N)NCCC[C@H](NC(=O)[C@H](CS)NC(=O)[C@H](CCCNC(=N)N)NC(=O)[C@H](CCCNC(=N)N)NC(=O)[C@H](CCCNC(=N)N)NC(=O)[C@@H](N)CCCNC(=N)N)C(=O)N[C@@H](Cc1ccccc1)C(=O)N[C@@H](CS)C(=O)N[C@@H](CS)C(=O)O [AS-hepc3(48-56), Arg-Arg-Arg-Arg-Cys-Arg-Phe-Cys-Cys] (H-RRRRCRFCC-OH; N-terminus and C-terminus assumed) , what is its reported viability at 24 h, 40 µM?
> 95%

---

test: in vitro; format: cell-based, human; conditions: human, 293T cells (human kidney epithelial cells)
Peptide text beside a SMILES is read from it.
measure.name: viability at 24 h, 80 µM

For N=C(N)NCCC[C@H](NC(=O)[C@H](CS)NC(=O)[C@H](CCCNC(=N)N)NC(=O)[C@H](CCCNC(=N)N)NC(=O)[C@H](CCCNC(=N)N)NC(=O)[C@@H](N)CCCNC(=N)N)C(=O)N[C@@H](Cc1ccccc1)C(=O)N[C@@H](CS)C(=O)N[C@@H](CS)C(=O)O [AS-hepc3(48-56), Arg-Arg-Arg-Arg-Cys-Arg-Phe-Cys-Cys] (H-RRRRCRFCC-OH; N-terminus and C-terminus assumed) , what is its reported viability at 24 h, 80 µM?
> 95%

---

test: in vitro; type: cell-based, human; conditions: human, 293T cells (human kidney epithelial cells)
Peptide text beside a SMILES is read from it.
measure.name: viability at 24 h, 40 µM

For N=C(N)NCCC[C@H](NC(=O)[C@H](CS)NC(=O)[C@H](CCCNC(=N)N)NC(=O)[C@H](CCCNC(=N)N)NC(=O)[C@H](CCCNC(=N)N)NC(=O)[C@@H](N)CCCNC(=N)N)C(=O)N[C@@H](Cc1ccccc1)C(=O)N[C@@H](CS)C(=O)N[C@@H](CS)C(=O)O [AS-hepc3(48-56), Arg-Arg-Arg-Arg-Cys-Arg-Phe-Cys-Cys] (H-RRRRCRFCC-OH; N-terminus and C-terminus assumed) , what is its reported viability at 24 h, 40 µM?
> 95%
